assay: xn = mol fraction of the nth substance listed
assay-setup: 298.15 K; 100.5 kPa; Liquid; x1 = 0.7
The following compounds are shown together with reported mass density values.

{"compound": "CC(=O)OCc1ccccc1 [benzyl ethanoate] + CCO", "value-unit": "kg/m3", "mass density": 1012.1}
{"compound": "CCOC(=O)CC(C)C [ethyl 3-methylbutanoate] + CCO", "value-unit": "kg/m3", "mass density": 848.38}
{"compound": "CCC(=O)OCc1ccccc1 [benzyl propanoate] + CCO", "value-unit": "kg/m3", "mass density": 995.44}
{"compound": "COC(=O)c1ccccc1 [methyl benzoate] + CCO", "value-unit": "kg/m3", "mass density": 1035.36}
{"compound": "CCOC(=O)CC(C)=O [ethyl 3-oxobutanoate] + CCO", "value-unit": "kg/m3", "mass density": 984.17}
{"compound": "CCOC(=O)c1ccccc1O [ethyl 2-hydroxybenzoate] + CCO", "value-unit": "kg/m3", "mass density": 1076.67}
